test system: UACC-257 melanoma; test: NCI tumour cell line growth inhibition, 48 h
readout type: log10 TGI (log10 of the value in µM)

>>> measured_number("C=CC(c1ccccc1)C1(O)c2cccc(O)c2C(=O)c2c(O)cccc21 (stereo not drawn)")
1.60
>>> measured_number("Nc1ccn([C@@H]2C=C(CO)[C@@H](O)[C@H]2O)c(=O)n1")
2.67
>>> measured_number("COc1ccc(Nc2ccnc(NCCCNc3ccnc4cc(Cl)ccc34)n2)cc1")
0.44
>>> measured_number("Clc1ccc2nc(CCSCCc3nc4ccc(Cl)cc4[nH]3)[nH]c2c1")
1.42
>>> measured_number("CC(C)=CCC[C@@H](C)C1=C(Nc2ccccc2)C(O)=C(C)C(=O)C1=O")
1.62
>>> measured_number("COc1cnc2c(c1)C(=O)c1c-2n(CCCN2CCN(C)CC2)c(=O)c2cc(Cl)ccc12")
1.35
>>> measured_number("COC(=O)Nc1nc2ccc(Oc3ccc(NC(=O)Nc4cccc(Cl)c4)cc3)cc2[nH]1")
1.29
>>> measured_number("O=C1c2cccnc2C(=O)c2c1nc1ccccc1c2-c1cncc(-c2c3c(nc4ccccc24)C(=O)c2cccnc2C3=O)c1")
0.03
>>> measured_number("C#C[C@]1(O)CC[C@H]2[C@@H]3CCC4=C/C(=N\\OCCN5CCCC5)CC[C@]4(C)[C@H]3CC[C@@]21C")
1.36
>>> measured_number("CCCCCCCCCCCCCCCCOCCCOP(=O)(O)C1CCCN(O)C1=O (stereo not drawn)")
1.17
>>> measured_number("O=C(Nc1ccc(Br)c(Cl)c1)c1cc(F)ccc1O")
0.45
>>> measured_number("COc1ccc(-c2nc(-c3nc4cc(C)c(C)cc4[nH]3)cc3c2[nH]c2ccccc23)cc1")
1.16
>>> measured_number("COc1cc(CCCC(O)COc2cccc3c2C2(O)CCCCCC32)cc(OC)c1 (stereo not drawn)")
1.51
>>> measured_number("CCN(CC)CCOc1cc2c(C(=O)OC)c(C)oc2cc1C(C)=O")
1.50
>>> measured_number("COc1cc2c3c(c4cc(OC)c(OC)cc4c2cc1OC)[C@H](O)[C@@H]1CCCN1C3")
0.06
>>> measured_number("C=C1CC(COc2ccc3ccc(=O)oc3c2)(c2ccccc2)OC1=O (stereo not drawn)")
0.61
>>> measured_number("CN(C)CC1CCn2c(c(C3=C(c4cn(C)c5ccccc45)C(=O)NC3=O)c3ccccc32)C1 (stereo not drawn)")
0.88
>>> measured_number("CSC(=S)NNC(=O)c1ccncc1")
1.75

----------
tested on: MDA-MB-435; assay: NCI tumour cell line growth inhibition, 48 h
Recorded TGI by entry
readout type: TGI (µM)

>>> measured_number("Nc1ccn([C@@H]2C=C(CO)[C@@H](O)[C@H]2O)c(=O)n1")
500
>>> measured_number("COc1cc(/C=C2\\N=C(c3ccccc3)N(/N=C/c3cc4cc(C)ccc4nc3Cl)C2=O)cc(OC)c1OC")
40.7
>>> measured_number("CC(=O)OCC1OC(S[As](C)C)C(OC(C)=O)C1OC(C)=O (centres undefined)")
0.301
>>> measured_number("C[C@H](CCC1=NCCN1)[C@H]1CC[C@H]2[C@@H]3CC[C@@H]4C[C@H](O)CC[C@]4(C)[C@H]3CC[C@]12C")
22
>>> measured_number("COc1cc2c3c(c4cc(OC)c(OC)cc4c2cc1OC)[C@H](O)[C@@H]1CCCN1C3")
2.86
>>> measured_number("COC1CC2CCC(C)[C@](O)(O2)C(=O)C(=O)N2CCCCC2C(=O)OC(C(C)CC2CCC(O)C(OC)C2)CC(=O)C(C)C=C(C)C(OC(=O)CN(C)C)C(OC)C(=O)C(C)CC(C)/C=C/C=C/C=C\\1C (some centres undefined)")
19.2
>>> measured_number("CCNc1nc(N2CC(=O)Nc3cc(OC)ccc32)c2ccccc2n1")
0.000442
>>> measured_number("NC(=O)NC(=O)c1ccc(NC(=O)CBr)cc1")
3.06
>>> measured_number("COc1cnc2c(c1)C(=O)c1c-2n(CCCN2CCN(C)CC2)c(=O)c2cc(Cl)ccc12")
3.14
>>> measured_number("Cn1cc(C2=C(c3c4n(c5ccccc35)CCC(CN)CC4)C(=O)NC2=O)c2ccccc21 (centres undefined)")
6.76
